Values compiled from PubChem BioAssay (EPA / NIEHS).

Assay: ATG_TGFb_CIS: Attagene CIS-FACTORIAL HepG2 Assay for human Transforming Growth Factor (TGF) (AID 2282967)
Conditions: HepG2 Attagene CIS TGFb reporter, mRNA transcription; actives raise or lower the signal
Activity calls are given as the source filed them. Rule for the calls: active = hit-call score of the fitted dose curve at least 0.9, where 1 is the maximum; inactive = score below 0.9.
Answer with one of the outcomes given here: TRUE for active, FALSE for inactive

[ask] Please indicate how the test categorized "CC=C(C)C=CC=C(C)C" .
[reply] FALSE

[ask] Please answer likewise for "CCOC(=O)C1=NOC(c2ccccc2)(c2ccccc2)C1"
[reply] FALSE

[ask] How about "CCCCCOC(=O)CCCCC" ?
[reply] FALSE

[ask] Follow-up item: CCC(C)N (stereo unspecified)
[reply] FALSE

[ask] "N#CC1(N)CCCCC1" ?
[reply] FALSE

[ask] Next record, please: "[Cl][Sc]([Cl])[Cl]"
[reply] FALSE

[ask] What would you report for "CC(CCC(=O)O)(c1ccc(O)cc1)c1ccc(O)cc1" ?
[reply] FALSE

[ask] // query: "Cc1cc(=O)[nH]c(=O)[nH]1"
[reply] FALSE

[ask] Now this one: CC(Cl)COP(=O)(OCC(C)Cl)OCC(C)Cl (stereo unspecified)
[reply] FALSE

[ask] Please answer likewise for "O=C(O)c1cc(O)c2ccccc2c1O"
[reply] TRUE

[ask] Then this compound: CCC(C)(O)CCCC(C)C (stereo unspecified)
[reply] FALSE

[ask] Same thing, different compound: CCCCOC(=O)C(C)CC (stereo unspecified)
[reply] FALSE

[ask] Check CCC(C)C(=O)OC (stereo unspecified) too.
[reply] FALSE

[ask] Can you check CC1C(C)(C)C2=C(C(=O)CCC2)C1(C)C (stereo unspecified) next?
[reply] FALSE

[ask] Let us now turn to O=C(O)C1CCC(C(=O)O)CC1 (stereo unspecified)
[reply] FALSE

[ask] Subsequent entry: CCCC(CC)c1ccccc1 (stereo unspecified)
[reply] FALSE
